target: MALT1 (Homo sapiens (Human), UniProt Q9UDY8); assay: MALT1 enzymatic activity inhibition (fluorescence, Ac-LRSR-AMC substrate); assay type: biochemical; conditions: recombinant MALT1 1.5 ng/μl, Ac-LRSR-AMC 1 μM
Sequence (Q9UDY8 whole entry): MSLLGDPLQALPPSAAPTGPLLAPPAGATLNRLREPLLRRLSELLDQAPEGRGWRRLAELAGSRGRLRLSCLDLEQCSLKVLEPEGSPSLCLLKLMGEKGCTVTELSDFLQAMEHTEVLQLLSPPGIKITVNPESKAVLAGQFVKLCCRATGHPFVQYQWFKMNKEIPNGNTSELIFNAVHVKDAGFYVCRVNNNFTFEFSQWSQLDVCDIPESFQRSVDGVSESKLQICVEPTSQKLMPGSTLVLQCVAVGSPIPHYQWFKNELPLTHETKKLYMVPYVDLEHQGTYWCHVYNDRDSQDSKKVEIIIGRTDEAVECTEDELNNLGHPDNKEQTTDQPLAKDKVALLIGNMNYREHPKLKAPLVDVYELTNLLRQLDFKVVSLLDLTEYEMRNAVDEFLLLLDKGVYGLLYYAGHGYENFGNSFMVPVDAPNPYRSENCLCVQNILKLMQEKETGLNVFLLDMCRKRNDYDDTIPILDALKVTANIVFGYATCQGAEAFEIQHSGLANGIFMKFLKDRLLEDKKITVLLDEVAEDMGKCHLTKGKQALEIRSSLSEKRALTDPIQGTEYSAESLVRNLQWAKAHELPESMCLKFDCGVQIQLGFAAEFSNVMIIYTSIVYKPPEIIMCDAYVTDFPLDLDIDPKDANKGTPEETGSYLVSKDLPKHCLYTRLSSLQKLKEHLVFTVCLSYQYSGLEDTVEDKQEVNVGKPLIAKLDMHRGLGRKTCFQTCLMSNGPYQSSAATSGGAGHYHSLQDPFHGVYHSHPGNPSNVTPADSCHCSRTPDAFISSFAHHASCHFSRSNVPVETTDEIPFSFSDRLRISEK
Listed here: items and their measured EC50.
Result type: EC50

# Molecule, Result type, Experimental value
measured = [
    ("CC(C)c1c(NC(=O)Nc2cnc(-c3noc(CCCC(=O)N4CCN(c5ccc6c(c5)CN(C5CCC(=O)N(C)C5=O)C6=O)CC4)n3)c(Cl)c2)cnc2ccnn12 (stereo not shown) [Compound 135]", "EC50", "≤ 0.2 µM"),
    ("COc1cc(-c2c(NC(=O)Nc3cnc(-c4noc(CNC(=O)CCOCCN5CCN(c6ccc7c(c6)CN(C6CCC(=O)NC6=O)C7=O)CC5)n4)c(C)c3)cnc3ccnn23)cc(OC)c1OC (stereo not shown) [Compound 1]", "EC50", "> 5 µM"),
    ("O=C1CCC(N2Cc3cc(N4CCN(C(=O)CCCCc5nc(-c6ncc(NC(=O)Nc7cnc8ccnn8c7C7CCCC7)cc6Cl)no5)CC4)ccc3C2=O)C(=O)N1 (stereo not shown) [Compound 76]", "EC50", "≤ 0.2 µM"),
    ("O=C1CCC(N2Cc3cc(N4CCN(C(=O)CCCCCc5nc(-c6ncc(NC(=O)Nc7cnc8ccnn8c7C7CCCC7)cc6C(F)(F)F)no5)CC4)ccc3C2=O)C(=O)N1 (stereo not shown) [Compound 104]", "EC50", "≤ 0.2 µM"),
    ("Cc1cc2ncc(NC(=O)Nc3cnc(-c4noc(CCCCCN5CCN(c6ccc7c(c6)CN(C6CCC(=O)NC6=O)C7=O)CC5)n4)c(C)c3)c(C3CCCO3)n2n1 (stereo not shown) [Compound 85]", "EC50", "≤ 0.2 µM"),
    ("O=C1CCC(N2Cc3cc(N4CCN(C(=O)CCCCCc5nc(-c6ncc(NC(=O)Nc7cnc8ccnn8c7C7CCC7)cc6Cl)no5)CC4)ccc3C2=O)C(=O)N1 (stereo not shown) [Compound 116]", "EC50", "≤ 0.2 µM"),
    ("O=C(CCOCCOCCN1CCN(c2ccc3c(c2)CN(C2CCC(=O)NC2=O)C3=O)CC1)NCCOc1ccc(Cl)cc1NC(=O)Nc1cnc2ccnn2c1C1CCCC1 (stereo not shown) [Compound 49]", "EC50", "1 to 5 µM"),
    ("Cc1cc(NC(=O)Nc2cnc3ccnn3c2C2CCCO2)cnc1-c1noc(CCC(=O)N2CCN(c3ccc4c(c3)CN(C3CCC(=O)NC3=O)C4=O)CC2)n1 (stereo not shown) [Compound 60]", "EC50", "≤ 0.2 µM"),
    ("O=C1CCC(N2Cc3cc(N4CCN(C(=O)CCCc5nc(-c6ncc(NC(=O)Nc7cnc8ccnn8c7C7CCCC7)cc6C(F)(F)F)no5)CC4)ccc3C2=O)C(=O)N1 (stereo not shown) [Compound 106]", "EC50", "≤ 0.2 µM"),
    ("Cc1cc2ncc(NC(=O)Nc3cnc(-c4noc(CCCCC(=O)N5CCN(c6ccc7c(c6)CN(C6CCC(=O)NC6=O)C7=O)CC5)n4)c(C)c3)c(C3CCCC3)n2n1 (stereo not shown) [Compound 59]", "EC50", "≤ 0.2 µM"),
    ("O=C(CCOCCN1CCN(c2ccc3c(c2)CN(C2CCC(=O)NC2=O)C3=O)CC1)NCCOc1ncc(Cl)cc1NC(=O)Nc1cnc2ccnn2c1C1CCCO1 (stereo not shown) [Compound 36]", "EC50", "0.5 to 1 µM"),
    ("Cc1cc(NC(=O)Nc2cnc3ccnn3c2C2CCCO2)cnc1N1CCN(C(=O)CCOCCOCCN2CCN(c3ccc4c(c3)CN(C3CCC(=O)NC3=O)C4=O)CC2)CC1 (stereo not shown) [Compound 31]", "EC50", "> 5 µM"),
    ("Cc1cc(NC(=O)Nc2cnc3ccnn3c2C2CCCC2)cnc1-c1noc(CCCCCN2CCN(c3cc4c(cc3F)C(=O)N(C3CCC(=O)NC3=O)C4=O)CC2)n1 (stereo not shown) [Compound 55]", "EC50", "≤ 0.2 µM"),
    ("Cc1cc(NC(=O)Nc2cnc3ccnn3c2C2CCCC2)cnc1-c1noc(CCCN2CCN(c3cc4c(cc3F)C(=O)N(C3CCC(=O)NC3=O)C4=O)CC2)n1 (stereo not shown) [Compound 23]", "EC50", "0.2 to 0.5 µM"),
    ("Cc1cc(NC(=O)Nc2cnc3ccnn3c2C2CCCC2)cnc1-c1noc(CCCCC(=O)N2CCN(c3ccc4c(c3)CN(C3CCC(=O)NC3=O)C4=O)CC2)n1 (stereo not shown) [Compound 14]", "EC50", "≤ 0.2 µM"),
    ("O=C1CCC(N2Cc3cc(N4CCN(C(=O)CCCCCc5nc(-c6ncc(NC(=O)Nc7cnc8ccnn8c7C7CC7)cc6Cl)no5)CC4)ccc3C2=O)C(=O)N1 (stereo not shown) [Compound 158]", "EC50", "≤ 0.2 µM"),
    ("O=C(CCOCCN1CCN(c2ccc3c(c2)CN(C2CCC(=O)NC2=O)C3=O)CC1)NCCOc1ncc(Cl)cc1NC(=O)Nc1cnc2nccn2c1C1CCCC1 (stereo not shown) [Compound 52]", "EC50", "> 5 µM"),
    ("O=C1CCC(N2Cc3cc(N4CCN(CCCCCCc5nc(-c6ncc(NC(=O)Nc7cnc8ccnn8c7C7CCCCC7)cc6Cl)no5)CC4)ccc3C2=O)C(=O)N1 (stereo not shown) [Compound 119]", "EC50", "≤ 0.2 µM"),
    ("O=C1CCC(N2Cc3cc(N4CCN(Cc5nc(-c6ncc(NC(=O)Nc7cnc8ccnn8c7C7CCCC7)cc6Cl)no5)CC4)ccc3C2=O)C(=O)N1 (stereo not shown) [Compound 56]", "EC50", "≤ 0.2 µM"),
    ("Cc1cc(NC(=O)Nc2cnc3ccnn3c2C2CCCO2)cnc1-n1cc(C(=O)NCCOCCOCCC(=O)N2CCN(c3ccc4c(c3)CN(C3CCC(=O)NC3=O)C4=O)CC2)cn1 (stereo not shown) [Compound 33]", "EC50", "1 to 5 µM"),
    ("O=C1CCC(N2Cc3cc(N4CCN(CCCCCCc5nc(-c6ncc(NC(=O)Nc7cnc8ccnn8c7C7CCCC7)cc6Cl)no5)CC4)ccc3C2=O)C(=O)N1 (stereo not shown) [Compound 78]", "EC50", "≤ 0.2 µM"),
    ("O=C(CCOCCN1CCN(c2ccc3c(c2)CN(C2CCC(=O)NC2=O)C3=O)CC1)NCCOc1ncc(Cl)cc1NC(=O)Nc1cnc2ccnn2c1C1CCCC1 (stereo not shown) [Compound 37]", "EC50", "0.5 to 1 µM"),
]

* * *

Listing: EC50 of selected molecules
target: MALT1 (Homo sapiens (Human)); assay: MALT1 enzymatic activity inhibition (fluorescence, Ac-LRSR-AMC substrate); format: biochemical; conditions: recombinant MALT1 1.5 ng/μl, Ac-LRSR-AMC 1 μM
Result type: EC50

# Molecule, Experimental value
measured = [
    ("O=C(CCOCCN1CCN(c2ccc3c(c2)CN(C2CCC(=O)NC2=O)C3=O)CC1)NCCNC(=O)C1CCCN1C(=O)Nc1cnc2ccnn2c1C1CCCC1 (stereo not drawn) [Compound 45]", "> 5 µM"),
    ("CCCCOP(=O)(OCCCC)OCN1C(=O)CCC(N2Cc3cc(N4CCN(C(=O)CCCCc5nc(-c6ncc(NC(=O)Nc7cnc8ccnn8c7C(C)C)cc6C)no5)CC4)ccc3C2=O)C1=O (stereo not drawn) [Compound 147]", "≤ 0.2 µM"),
    ("Cc1cc(NC(=O)Nc2cnc3ccnn3c2C2CCCCC2)cnc1-c1noc(CCCCCC(=O)N2CCN(c3ccc4c(c3)CN(C3CCC(=O)NC3=O)C4=O)CC2)n1 (stereo not drawn) [Compound 107]", "≤ 0.2 µM"),
]

* * *

target: MALT1 (Homo sapiens (Human)); assay: MALT1 enzymatic activity inhibition (fluorescence, Ac-LRSR-AMC substrate); assay type: biochemical; settings: recombinant MALT1 1.5 ng/μl, Ac-LRSR-AMC 1 μM

# Compound, EC50
measured = [
    ("O=C1CCC(N2Cc3cc(NC(=O)CCCc4nc(-c5ncc(NC(=O)Nc6cnc7ccnn7c6C6CCCC6)cc5Cl)no4)ccc3C2=O)C(=O)N1 (stereo not drawn) [Compound 80]", "≤ 0.2 µM"),
    ("COc1cc(-c2c(NC(=O)Nc3cnc(NCCOCCOCCC(=O)N4CCN(c5ccc6c(c5)CN(C5CCC(=O)NC5=O)C6=O)CC4)c(C)c3)cnc3ccnn23)cc(OC)c1OC (stereo not drawn) [Compound 27]", "> 5 µM"),
    ("Cc1cc(NC(=O)Nc2cnc3ccnn3c2C2CCCCC2)cnc1-c1noc(CCCC(=O)N2CCN(c3ccc4c(c3)CN(C3CCC(=O)NC3=O)C4=O)CC2)n1 (stereo not drawn) [Compound 126]", "0.5 to 1 µM"),
]

* * *

molecular target: MALT1 (Homo sapiens (Human)); assay: MALT1 enzymatic activity inhibition (fluorescence, Ac-LRSR-AMC substrate); type: biochemical; details: recombinant MALT1 1.5 ng/μl, Ac-LRSR-AMC 1 μM
Result type: EC50

# Molecule, Result type, Experimental value
measured = [
    ("Cc1cc(NC(=O)Nc2cnc3nccn3c2C2CCCC2)cnc1-c1noc(CCCCCC(=O)N2CCN(c3ccc4c(c3)CN(C3CCC(=O)NC3=O)C4=O)CC2)n1 (stereo not drawn)", "EC50", "> 5 µM"),
    ("O=C(CCOCCN1CCN(c2ccc3c(c2)CN(C2CCC(=O)NC2=O)C3=O)CC1)NCCOc1ncc(Cl)cc1NC(=O)Nc1cnc2ncnn2c1C1CCCCC1 (stereo not drawn)", "EC50", "> 5 µM"),
    ("Cc1cc(NC(=O)Nc2cnc3ccnn3c2C2CCCC2)cnc1-c1noc(CCOCCN2CCN(c3ccc4c(c3)CN(C3CCC(=O)NC3=O)C4=O)CC2)n1 (stereo not drawn)", "EC50", "0.2 to 0.5 µM"),
    ("CC(C)c1c(NC(=O)Nc2ccc(-c3nnc(CCCCCC(=O)N4CCN(c5ccc6c(c5)CN(C5CCC(=O)NC5=O)C6=O)CC4)o3)nc2)cnc2ccnn12 (stereo not drawn)", "EC50", "1 to 5 µM"),
    ("O=C1CCC(N2Cc3cc(N4CCN(C(=O)CCCCCc5nc(-c6ncc(NC(=O)Nc7cnc8ccnn8c7C7CCCC7)cc6Cl)no5)CC4)ccc3C2=O)C(=O)N1 (stereo not drawn)", "EC50", "≤ 0.2 µM"),
    ("Cc1cc(NC(=O)Nc2cnc3c(Cl)cnn3c2C2CCCC2)cnc1-c1noc(CCCN2CCN(c3ccc4c(c3)CN(C3CCC(=O)NC3=O)C4=O)CC2)n1 (stereo not drawn)", "EC50", "1 to 5 µM"),
]
